Test system: RPMI-8226 leukemia
experiment.description: NCI tumour cell line growth inhibition, 48 h; in the data active = GI50 below about 0.43 µM; inactive = the rest
Please answer using one outcome listed in active, inactive

Record excerpt, results attached:
molecule: CN(C)CCCn1c2c(c3ccccc3c1=O)C(=O)c1ccccc1-2
category.label: inactive

molecule: CCS(=O)(=O)c1ccc(OC)c(Nc2ncc(-c3cccc(OC)c3)o2)c1
category.label: inactive

molecule: CN(C)CCOc1ccc(/C(=C(/CCCCCCCCCC[P+](c2ccccc2)(c2ccccc2)c2ccccc2)c2ccccc2)c2ccccc2)cc1
category.label: active

molecule: COc1cc(C2=NN(C(C)=O)C(c3ccc(OC(C)=O)cc3OC(C)=O)O2)c(OC(C)=O)c2ccccc12 (centres undefined)
category.label: inactive

molecule: O=C(Nc1ccc(Cl)cc1)c1cc(-c2ccc(F)cc2)c2sc(=O)[nH]c2n1
category.label: active

molecule: CCN(CC)CCCC(C)Nc1c(C)cnc2cc(Cl)c(C)cc12 (centres undefined)
category.label: inactive

molecule: COc1ccc(C(=O)c2cc(C)c(OC)c(C)c2)c(OC)c1N(C(=O)C(Cl)Cl)C(=O)C(Cl)Cl
category.label: active

molecule: CCN(CC)CCN1CC(O)=C(c2nc(-c3ccc(Cl)cc3)cs2)C1=N
category.label: inactive

# next molecule below
q: Status in this test for COc1ccc(C(=O)COc2cccc(/C=C3\COc4ccc5ccccc5c4C3=O)c2)cc1 ?
a: inactive

###

System: LXFL 529 NSCLC
experiment.description: NCI tumour cell line growth inhibition, 48 h
measurement.kind: TGI (µM)
Dear colleague, please return just the value in µM, with no unit written.

Answered cases to consult:
molecule: CCC[CH2][Sn]1([CH2]CCC)[O]C(=O)C(C(C)C)N=Cc2ccccc2[O]1 (centres undefined)
TGI (µM): 0.2
//
molecule: CN(C)CC/C(=N\Nc1c(Cl)cccc1Cl)c1ccccc1
TGI (µM): 29.5
//
molecule: COc1ccc2c(c1)C=C([N+](=O)[O-])C(C1OC(C)(C)OC1C1COC(C)(C)O1)O2 (centres undefined)
TGI (µM): 13.8

Consider the record given below.
q: What measured TGI goes with N=C1C(=N)c2ccccc2-c2ccccc21.[Cl-].[Ru+2].c1cnc2c(c1)ccc1cccnc12.c1cnc2c(c1)ccc1cccnc12 ?
a: 55.7

###

System: OVCAR-8 ovarian
experiment.description: NCI tumour cell line growth inhibition, 48 h
Measured TGI, listed per entry.

Answered cases to consult:
compound: CCN(CC)c1sc(N(CC)CC)c2c1SSSSS2
TGI: 4.7 µM
--
compound: COc1ccc2c(c1)C(=O)c1c-2n(CCCn2ccnc2)c(=O)c2ccccc12
TGI: > 69.2 µM
--
compound: COc1cc(OC)c(/C=C/C(=O)c2c(OC)cccc2OC)c(OC)c1
TGI: > 100 µM

q: What measured TGI goes with Cc1c2c(cc3c1C(=O)C(=O)C([C@@H](C)CO)=C3O)C(C)(C)CCC2 ?
a: > 100 µM

q: What measured TGI goes with CC(C)(C)c1cc(S(=O)(=O)O)c2oc(-c3ccccc3)cc(=O)c2c1 ?
a: > 100 µM

q: What measured TGI goes with Cc1sc2nc(N(C)C)oc(=O)c2c1C ?
a: > 100 µM

###

Tested on: U251 CNS
experiment.description: NCI tumour cell line growth inhibition, 48 h
measurement.kind: TGI (µM)
Dear colleague, please return just the value in µM, with no unit written.

Answered cases to consult:
compound: CC(=O)OC1C=C(C=O)C(O)(C=O)C2(C)CCCC(C)(C)C12 (stereo not given)
value.units: µM
TGI: 7.39
//
compound: COc1ccc2c(c1)C=C([N+](=O)[O-])C(C1OC(C)(C)OC1C1COC(C)(C)O1)O2 (stereo not given)
value.units: µM
TGI: 9.83

Consider the record given below.
q: What measured TGI goes with CC1=NN(c2cccc(S(=O)(=O)O)c2)C2(C1)C(Cl)C(=O)N2c1nc2ccccc2s1 (stereo not given) ?
a: 16.3
